Biological target: CB2/CHO cell membrane proteins (Homo sapiens)
Construct: expressed in transfected cells; host or cells: CHO cells (membranes)
Test: GTPgS binding assay
Type: biochemical
Settings: [35S]GTPγS, CB2/CHO cell membranes
EC50 by entry:
Give the value in nM but do not write nM after it.

CC1(C)Cc2ccc(C#N)cc2[C@@H]1NC(=O)c1cc2cc(Cl)ccc2[nH]1; 2.2
Cn1c(C(=O)N[C@H]2c3cc(C#N)ccc3CC2(C)C)cc2cc(Cl)ccc21; 4.5
CC1(C)Cc2ccc(C#N)cc2[C@@H]1NC(=O)c1cc2cc(Cl)ccc2n1CCN1CCOCC1; 7.8
CN(C)CCn1c(C(=O)N[C@H]2c3cc(C#N)ccc3CC2(C)C)cc2cc(Cl)ccc21; 8.1

Query molecule follows.
Could you share which EC50 value was measured for "CC1(C)Cc2ccc(C#N)cc2[C@@H]1NC(=O)c1cc2cc(O)ccc2[nH]1" ?
2.4

----------
The compounds below have reported Ki for hCB2 receptors (Homo sapiens).
# number only, unit nM dropped from output

Sample answers from the record:
COC(=O)c1ccc2c(c1)[C@H](NC(=O)c1cc3cc(Cl)ccc3[nH]1)C(C)(C)C2; 35
CC1(C)Cc2ccc(C#N)cc2[C@@H]1NC(=O)c1cc2cc(Cl)ccc2[nH]1; 0.71
CC1(C)Cc2ccc(C#N)cc2[C@@H]1NC(=O)c1cc2ccccc2[nH]1; 2.4

Observed Ki on hCB2 receptors (Homo sapiens) for "CC1(C)Cc2ccc(C#N)cc2[C@@H]1NC(=O)c1cc2cc(O)ccc2[nH]1" , please.
Sequence (P34972 whole entry): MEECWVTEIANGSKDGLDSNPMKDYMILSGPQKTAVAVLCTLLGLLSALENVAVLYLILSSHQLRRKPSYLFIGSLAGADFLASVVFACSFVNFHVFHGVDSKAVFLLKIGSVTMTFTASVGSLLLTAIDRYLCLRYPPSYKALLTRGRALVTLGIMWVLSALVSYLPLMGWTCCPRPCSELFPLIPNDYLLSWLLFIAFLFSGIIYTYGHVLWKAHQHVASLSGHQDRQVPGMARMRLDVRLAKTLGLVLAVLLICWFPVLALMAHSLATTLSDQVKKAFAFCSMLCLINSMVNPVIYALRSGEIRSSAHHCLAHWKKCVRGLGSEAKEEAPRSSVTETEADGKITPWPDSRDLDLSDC
3

Likewise for "CC1(C)Cc2ccc(C#N)cc2[C@@H]1NC(=O)c1cc2cc([N+](=O)[O-])ccc2[nH]1" ?
4.2

Now consider "CN(C)CCn1c(C(=O)N[C@H]2c3cc(C#N)ccc3CC2(C)C)cc2cc(Cl)ccc21" .
60
